Where do the numbers come from? From paper PMC6295861.

experimental-system: HIPK2 (Homo sapiens, UniProt Q9H2X6)
Sequence (Q9H2X6 whole entry): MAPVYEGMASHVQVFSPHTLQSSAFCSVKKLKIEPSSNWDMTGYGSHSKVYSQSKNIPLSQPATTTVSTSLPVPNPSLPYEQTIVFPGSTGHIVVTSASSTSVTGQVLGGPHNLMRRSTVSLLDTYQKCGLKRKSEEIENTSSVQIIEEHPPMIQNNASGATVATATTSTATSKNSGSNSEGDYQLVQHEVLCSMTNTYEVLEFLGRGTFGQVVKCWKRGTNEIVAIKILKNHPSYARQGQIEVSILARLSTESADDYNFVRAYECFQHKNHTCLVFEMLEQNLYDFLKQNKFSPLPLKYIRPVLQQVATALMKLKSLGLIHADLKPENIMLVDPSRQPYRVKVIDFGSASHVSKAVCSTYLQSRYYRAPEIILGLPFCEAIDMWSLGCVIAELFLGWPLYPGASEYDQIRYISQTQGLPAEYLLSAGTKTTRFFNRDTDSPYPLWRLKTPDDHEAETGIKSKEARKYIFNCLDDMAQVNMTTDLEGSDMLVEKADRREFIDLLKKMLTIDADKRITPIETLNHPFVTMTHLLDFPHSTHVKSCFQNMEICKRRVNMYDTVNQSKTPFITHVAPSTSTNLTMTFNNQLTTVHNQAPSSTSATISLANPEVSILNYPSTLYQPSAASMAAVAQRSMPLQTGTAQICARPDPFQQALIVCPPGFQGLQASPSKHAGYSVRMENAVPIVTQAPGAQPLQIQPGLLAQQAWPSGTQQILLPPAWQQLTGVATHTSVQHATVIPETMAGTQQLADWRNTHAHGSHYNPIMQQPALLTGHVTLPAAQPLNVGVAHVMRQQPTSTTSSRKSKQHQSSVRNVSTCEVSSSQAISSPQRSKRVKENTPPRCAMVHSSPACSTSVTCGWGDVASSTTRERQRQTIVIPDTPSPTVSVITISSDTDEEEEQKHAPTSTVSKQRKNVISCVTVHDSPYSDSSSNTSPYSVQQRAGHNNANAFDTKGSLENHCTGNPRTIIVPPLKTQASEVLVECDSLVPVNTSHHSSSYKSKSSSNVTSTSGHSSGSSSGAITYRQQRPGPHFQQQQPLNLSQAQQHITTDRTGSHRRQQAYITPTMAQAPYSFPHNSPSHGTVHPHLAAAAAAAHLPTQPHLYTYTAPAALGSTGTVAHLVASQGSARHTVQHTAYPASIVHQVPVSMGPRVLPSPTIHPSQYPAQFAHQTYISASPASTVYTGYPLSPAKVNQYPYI
test: Radio labeled filter binding kinase assay, HIPK2
Type: biochemical
assay-context: SI Table S5; unit inferred; one per duplicate curve; read-out: HIPK2 IC50, fitted values above the IC50(µM) line
property-measured: IC50
Report as: number unit

### Prompt Can you share its IC50? I mean this molecule: c1cnc2ncn(-c3cc(Nc4ccc(OCCN5CCCCC5)cn4)ncn3)c2c1 [Compd 1]
### Response 0.0272 µM
